pIC50: −log10 of the molar value.
Compiled literature pIC50, tested on Cytochrome P450 2D6 (Homo sapiens).

Value wanted: pIC50 (Cytochrome P450 2D6 (Homo sapiens)) of entry CCc1cnc2nc(CC3=C(O)CC(CCc4cc(F)c(C(C)(C)C#N)c(F)c4)(C4CCCC4)OC3=O)nn2c1 (stereo not shown) 6.89

Input CN1CCN(c2ncc(S(=O)(=O)N3CCN(Cc4cncn4CCOc4ccc(Cl)cc4)CC3)s2)CC1 5.89

Input CCC(CC)Nc1ncnc2[nH]cc(C(=O)c3ccc(Nc4ccc(OC)nc4)nc3F)c12 < 5.00

Input O=C1COc2cc(NCc3cccc(NC(=O)c4ccccc4Cl)c3)c(Cl)cc2N1 < 4.30

Input C[C@H](c1ccc(F)cc1)n1cncc1CN1CCN(S(=O)(=O)c2cnc(N3CCC(N)(CO)CC3)s2)CC1 5.08

Input CC[C@H]1SC(N)=N[C@](C)(c2cc(NC(=O)c3ccc(F)cn3)ccc2F)[C@H]1F ≤ 5.00

Input C[C@H]1SC(N)=N[C@](C)(c2cc(NC(=O)c3ncc(C#N)cc3Cl)ccc2F)[C@H]1F ≤ 4.70

Input C[C@H](c1ccc(F)cc1)n1cncc1CN1CCN(S(=O)(=O)c2ccc(N3CCNCC3)cn2)CC1 5.19

Input CC(C)(C#N)c1ccc(CCC2(C3CCCC3)CC(O)=C(Cc3cn4ccccc4n3)C(=O)O2)cc1F (stereo not shown) 6.05

Input [2H]c1c(C)c(Oc2cc(C(C([2H])([2H])[2H])C([2H])([2H])[2H])c(=O)[nH]n2)c(Cl)c([2H])c1-n1nc(C#N)c(=O)[nH]c1=O < 4.30

Input CC1(c2cc(NC(=O)c3ncc(F)cc3F)ccc2F)Cc2ccncc2C(N)=N1 (stereo not shown) < 4.70

Input C[C@@H](c1ccccc1-c1ccccc1OC(F)(F)F)n1cncc1C(=O)N1CCC2NCCO[C@@H]2C1 (stereo partly shown) < 5.00

Input CC(=O)N1CC(C)(C)c2ccc(NC(=O)c3cc(F)cnc3NCc3ccnc4[nH]ccc34)cc21 < 4.70

----------
Compiled literature pIC50, tested on Cytochrome P450 2D6 (Homo sapiens).
pIC50: −log10 of the molar value.

INSERT INTO results (compound, measurement_kind, val) VALUES
  ('COc1ccc(-c2ccc(Cn3c(CC(C)(C)C(=O)O)c(SC(C)(C)C)c4cc(OCc5ccccn5)ccc43)cc2)cn1', 'pIC50', '< 4.30'),
  ('C[C@H](c1ccc(F)cc1)n1cncc1CN1CCN(S(=O)(=O)c2cnc(N3CCNCC3)cn2)CC1', 'pIC50', 5.31),
  ('CC(C)S(=O)(=O)c1nn(C)cc1Nc1nc(Nc2ccc(C3CCN(C)CC3)cc2OC2CC2)ncc1Cl', 'pIC50', '< 5.00'),
  ('O=C(Nc1ccc(C(F)(F)C(F)(F)F)cc1)c1cccnc1NCc1ccnc2[nH]ccc12', 'pIC50', '< 4.70'),
  ('O=C1COc2cc(NCc3cccc(C(=O)Nc4cccnc4)c3)ccc2N1', 'pIC50', '< 4.30'),
  ('CNc1ncnc2[nH]cc(C(=O)c3ccc(Nc4ccc(C5CC5)nc4)nc3F)c12', 'pIC50', '> 5.30'),
  ('NC1=N[C@](CF)(c2cc(NC(=O)c3nn(C(F)F)cc3Cl)ccc2F)C[C@@H](C(F)(F)F)O1', 'pIC50', 4.62),
  ('C[C@@H](c1ccccc1-c1ccc(F)cc1)n1cncc1C(=O)N1CCC(N2CCn3c(nnc3C(F)(F)F)C2)CC1', 'pIC50', '≤ 5.00');

Tell me the measured pIC50 of O=C(Nc1ccc2c(c1)CNCC21CC1)c1cccnc1NCc1ccnc2[nH]ccc12 , please. < 4.70

Input CCOc1ncnc2[nH]cc(Cc3ccc(Nc4cnn(CC)c4)nc3F)c12 < 5.00

Input COc1c(C(=O)/C=C/c2cccnc2)c(O)c(OC)c2occc12 5.15

Input C[C@@]1(c2cc(NC(=O)c3ccc(Cl)cn3)ccc2F)C[C@@H](C(F)(F)F)OC(N)=N1 5.41

Input COCCOc1cc(CC2CCN(CCc3ccc4c(c3)C(=O)CCO4)CC2)ccc1Cl 4.76

Input CNc1ncnc2[nH]cc(C(=O)c3ccc(NC4CCC(F)(F)CC4)nc3F)c12 < 5.00

----------
pIC50: −log10 of the molar value.
Compiled literature pIC50, tested on UniProtKB P10635.

// known answers, use as guide
INSERT INTO results (compound, val) VALUES
  ('C[C@H](c1ccc(F)cc1)n1cncc1C1CN(C)CC2CN(S(=O)(=O)c3cnc(Nc4ccccn4)s3)CCN21 (stereo partly shown)', 5.64),
  ('O=C(Nc1ccc(C(F)(F)F)cc1)c1cccnc1NCc1ccnc2[nH]ccc12', '< 4.70');

Moving on to another compound below.
Tell me the measured pIC50 of C[C@H]1[C@@H](C(F)F)OC(N)=N[C@]1(C)c1cc(NC(=O)c2ccc(C#N)cn2)ccc1F , please. ≤ 4.70

----------
Compiled literature IC50, tested on Cytochrome P450 2D6 (Homo sapiens, UniProt P10635).

// known answers, use as guide
INSERT INTO results (molecule, test_system, measurement_kind, val) VALUES
  ('CCCNc1ncnc2[nH]cc(C(=O)c3ccc(Nc4ccc(CC)nc4)nc3F)c12', 'Cytochrome P450 2D6 (Homo sapiens, UniProt P10635)', 'IC50', '> 10 µM'),
  ('CNC(=O)Nc1cc2n(n1)CCN2c1cc(Br)cc(C(=O)Nc2cccc(C(=O)O)c2)c1', 'Cytochrome P450 2D6 (Homo sapiens, UniProt P10635)', 'IC50', '> 20 µM');

Value wanted: IC50 (Cytochrome P450 2D6 (Homo sapiens, UniProt P10635)) of entry C[C@@H](c1ccccc1-c1ccc(F)cc1)n1cncc1C(=O)N1CCCC(N2CCC(C)(O)CC2)CC1 (single isomer, unassigned) 2.39 µM

Input Oc1cccc(-c2cnc(-c3cccc(O)c3)s2)c1 7.76 µM

Input CCc1ccc(Nc2ccc(C(=O)c3c[nH]c4ncnc(N)c34)c(F)n2)cn1 > 10 µM

Input COCCOc1cc(Cl)cc(CC2CCN(CCc3ccc4c(c3)C(=O)CC4)CC2)c1 20.4 µM

Input COc1cc(N2CCc3nc(NC(=O)NCC(=O)O)sc3C2)nc(OC)n1 > 20 µM

Input CC(F)(F)[C@H]1OC(N)=N[C@](C)(c2cc(NC(=O)c3ccc(C#N)cn3)ccc2F)[C@H]1F ≥ 20 µM

----------
Compiled literature pIC50, tested on Cytochrome P450 2D6 (Homo sapiens).
pIC50: −log10 of the molar value.

// known answers, use as guide
INSERT INTO results (compound, measurement_kind, val) VALUES
  ('CC1(c2ccc(Cl)cc2F)Oc2cccc(C3CCN(Cc4nc5sc(C(=O)O)cc5n4C[C@@H]4CCO4)CC3)c2O1 (single isomer, unassigned)', 'pIC50', '< 4.30'),
  ('Cc1cc(C#N)cnc1C(=O)Nc1ccc(F)c([C@@]2(C)N=C(N)O[C@H](C3(F)CC3)[C@@H]2F)c1', 'pIC50', '≤ 5.00'),
  ('Cc1cc(C)n2nc(CC3=C(O)CC(COc4ccc(C(C)(C)C#N)c(F)c4)(C4CCCC4)OC3=O)nc2n1 (stereo not drawn)', 'pIC50', 6.70),
  ('CN1CCc2cc(N3CCn4nc(NC(=O)c5ccc(C(=O)NCC#N)s5)cc43)ccc2C1=O', 'pIC50', '< 4.70'),
  ('COc1cc(F)cc([C@@H](CO)NC(=O)[C@@H](C)N2Cc3ccc(-c4nc(NC5CCOCC5)ncc4F)c(F)c3C2=O)c1', 'pIC50', '< 5.00');

Value wanted: pIC50 (Cytochrome P450 2D6 (Homo sapiens)) of entry COc1ccc(Nc2ccc(C(=O)c3c[nH]c4ncc(C)cc34)c(F)n2)cn1 < 5.00

Input CNc1ncnc2[nH]cc(C(=O)c3ccc(Nc4cncc(OC)c4)nc3F)c12 > 5.30

Input Cc1cnc2[nH]cc(Cc3cnc(Nc4ccc(F)cc4)nc3)c2c1 < 5.00

Input Cc1ccc(Nc2ccc(C(=O)c3c[nH]c4ncnc(NCC(F)(F)F)c34)c(F)n2)cn1 > 5.30

Input C[C@@H](c1ccccc1CN1CCC(F)CC1)n1cncc1C(=O)N1CCC2NCCO[C@@H]2C1 (stereo partly drawn) < 5.00

Input COCCN1CCC(c2cc(OC3CC3)c(Nc3ncc(Cl)c(Nc4cn(C)nc4S(=O)(=O)C(C)C)n3)cc2C)CC1 < 5.00

----------
pIC50: −log10 of the molar value.
Compiled literature pIC50, tested on Cytochrome P450 2D6 (Homo sapiens).

INSERT INTO results (given_smiles, val) VALUES
  ('CC1(C)CNCc2cc(NC(=O)c3cccnc3NCc3ccnc4[nH]ccc34)ccc21', 5.00);

Value wanted: pIC50 (Cytochrome P450 2D6 (Homo sapiens)) of entry COc1ncnc2[nH]cc(Cc3ccc(Nc4ccc(C5CC5)nc4)nc3F)c12 < 5.00

Input Cc1cc(Nc2ncc(Cl)c(Nc3cn(C)nc3S(=O)(=O)C(C)C)n2)c(OC2CC2)cc1C1CCN(S(C)(=O)=O)CC1 < 5.00

Input CO[C@H]1[C@@H](C)SC(N)=N[C@]1(C)c1cc(NC(=O)c2ccc(C#N)cn2)ccc1F ≤ 4.70

Input Cc1ccc(Cn2c(=O)n(C[C@H](C)C(=O)O)c(=O)[nH]/c2=N\c2ccc(Oc3cccc(F)n3)cc2)cc1 < 4.70

Input O=S(=O)(NCC1CC1)Nc1ncnc(OCCOc2ncc(Br)cn2)c1-c1ccc2scnc2c1 < 4.30

Input CC(C)S(=O)(=O)c1nn(C)cc1Nc1nc(Nc2cc(F)c(C3CCN(C)CC3)cc2OC2CC2)ncc1Cl < 5.00

Input Cc1nc2cc(NC(=O)c3cccnc3NCc3ccnc4[nH]ncc34)ccc2s1 < 4.70
